This listing pairs compounds with measured pIC50.
# system: Syk (356-635 amino acids) catalytic domain (Homo sapiens (Human), UniProt P43405)
# assay.info: Inhibition of enzymatic Syk kinase activity (radiometric)
# Type: biochemical
# stated.conditions: read-out: IC50 Syk
pIC50: −log10 of the molar value.

Solved entries (count: 5):
[[record]]
compound = "O=C(O)CC1CCCN(c2ccc(Nc3nc(N4CCCCCC4)nc4cn[nH]c(=O)c34)cc2)C1 (centres unmarked)"
system = "Syk (356-635 amino acids) catalytic domain (Homo sapiens (Human), UniProt P43405)"
result_value = "> 8.00"

[[record]]
compound = "O=c1[nH]ncc2nc(N3CCCCCC3)nc(Nc3ccc(CCCN4CCNCC4)cc3)c12"
system = "Syk (356-635 amino acids) catalytic domain (Homo sapiens (Human), UniProt P43405)"
result_value = "> 7.30"

[[record]]
compound = "O=c1[nH]ncc2nc(N3CCCCCC3)nc(Nc3ccc(N4CCC(O)CC4)cc3)c12"
system = "Syk (356-635 amino acids) catalytic domain (Homo sapiens (Human), UniProt P43405)"
result_value = "> 8.00"

[[record]]
compound = "O=C(c1ccc(Nc2nc(N3CCCCCC3)nc3cn[nH]c(=O)c23)cc1)N1CCOCC1"
system = "Syk (356-635 amino acids) catalytic domain (Homo sapiens (Human), UniProt P43405)"
result_value = "> 7.00"

[[record]]
compound = "O=C(O)CN1CCN(c2ccc(Nc3nc(-c4ccccc4)nc4cn[nH]c(=O)c34)cc2)CC1"
system = "Syk (356-635 amino acids) catalytic domain (Homo sapiens (Human), UniProt P43405)"
result_value = "> 7.30"


Quick one: pIC50 of O=c1[nH]ncc2nc(N3CCCCCC3)nc(Nc3ccc(OCCO)cc3)c12 ? > 7.30

Quick one: pIC50 of O=C(O)CN1CCC(c2ccc(Nc3nc(-c4ccccc4)nc4cn[nH]c(=O)c34)cc2)CC1 ? > 7.30

Quick one: pIC50 of CCN1CCN(C(=O)COc2ccc(Nc3nc(N4CCCCCC4)nc4cn[nH]c(=O)c34)cc2)CC1 ? > 7.30
